System: Escherichia coli TOP10;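 also: peptides expressed intracellularly from a pBAD plasmid library in pooled LB shake-flask culture, induced with 0.3% L-arabinose, DNA abundance read by NGS, three biological replicates, DESeq2 with apeglm shrinkage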
protocol_summary: shrunken log2 fold change of peptide-encoding DNA abundance (4.5 h post-induction vs induction); higher = less antimicrobial activity (less host growth inhibition)
conditions: time post-induction: 4.5 h; library: site-saturation at positions 5, 18, 19, 20
metric: shrunken log2 fold change
Number, no unit, nothing else.

(Q) Reported shrunken log2 fold change for `RRIRARPPRLPRPRPRPCNAPRP` : what is it?
(A) 0.0237

(Q) Reported shrunken log2 fold change for `RRIRVRPPRLPRPRPRPMPGPRP` : what is it?
(A) 0.18

(Q) Reported shrunken log2 fold change for `RRIRYRPPRLPRPRPRPQHWPRP` : what is it?
(A) 0.0376

(Q) Reported shrunken log2 fold change for `RRIRSRPPRLPRPRPRPRFCPRP` : what is it?
(A) 0.23

(Q) Reported shrunken log2 fold change for `RRIRRRPPRLPRPRPRPPCDPRP` : what is it?
(A) 1.03

(Q) Reported shrunken log2 fold change for `RRIRGRPPRLPRPRPRPLRPPRP` : what is it?
(A) 1.47

(Q) Reported shrunken log2 fold change for `RRIRFRPPRLPRPRPRPPQWPRP` : what is it?
(A) 0.384

(Q) Reported shrunken log2 fold change for `RRIRKRPPRLPRPRPRPYLDPRP` : what is it?
(A) -0.0998

(Q) Reported shrunken log2 fold change for `RRIRERPPRLPRPRPRPSPEPRP` : what is it?
(A) 0.0512

(Q) Reported shrunken log2 fold change for `RRIRCRPPRLPRPRPRPKAAPRP` : what is it?
(A) 0.115

(Q) Reported shrunken log2 fold change for `RRIRPRPPRLPRPRPRPRMEPRP` : what is it?
(A) 0.197

(Q) Reported shrunken log2 fold change for `RRIRIRPPRLPRPRPRPHVLPRP` : what is it?
(A) -0.198

(Q) Reported shrunken log2 fold change for `RRIRYRPPRLPRPRPRPGYWPRP` : what is it?
(A) -0.154

(Q) Reported shrunken log2 fold change for `RRIRGRPPRLPRPRPRPGNDPRP` : what is it?
(A) 0.381

(Q) Reported shrunken log2 fold change for `RRIRQRPPRLPRPRPRPTCEPRP` : what is it?
(A) 0.0552
